Test system: PL-21
Assay: IC50 (cell viability) (log10 M)
Conditions: 4 days
Hi there, I'd appreciate the recorded IC50 (log10 M) for every entry that follows.
Please give the numeric answer without any surrounding text.

Param item = Cc1ccc(NC(=O)c2ccc(CN3CCN(C)CC3)cc2)cc1Nc1nc(-c2cccnc2)cs1 ; retrieve measured IC50 (log10 M).
-5.36

Param item = O=C(CCCCCCC(=O)Nc1ccccc1)NO ; retrieve measured IC50 (log10 M).
-5.94

Param item = CC(C)C[C@@H](C(=O)N[C@H](C(=O)OC1CCCC1)c1ccccc1)[C@H](O)C(=O)NO ; retrieve measured IC50 (log10 M).
-5.35

Param item = O=C(NC[C@H](O)CO)c1ccncc1Nc1ccc(I)cc1F ; retrieve measured IC50 (log10 M).
-7.99

Param item = CC(=O)Nc1cccc(-n2c(=O)n(C3CC3)c(=O)c3c(Nc4ccc(I)cc4F)n(C)c(=O)c(C)c32)c1 ; retrieve measured IC50 (log10 M).
-7.81

Param item = COc1ccc(-c2ccc3c(N4CCOC[C@@H]4C)nc(N4CCOC[C@@H]4C)nc3n2)cc1CO ; retrieve measured IC50 (log10 M).
-7.46

Param item = Nc1cc(C(F)(F)F)c(-c2cc(N3CCOCC3)nc(N3CCOCC3)n2)cn1 ; retrieve measured IC50 (log10 M).
-5.86

Param item = CN(C)CCCn1cc(C2=C(c3c[nH]c4ccccc34)C(=O)NC2=O)c2ccccc21 ; retrieve measured IC50 (log10 M).
-5.04

Param item = Nc1nc(F)nc2c1ncn2[C@@H]1O[C@H](CO)[C@@H](O)[C@@H]1O ; retrieve measured IC50 (log10 M).
-5.62

Param item = CN1CCC(CNc2ccc3ncc(-c4cccc(OC(F)(F)F)c4)n3n2)CC1 ; retrieve measured IC50 (log10 M).
-5.52

This collection of values is drawn from the supplement of paper PMC5752671.
